Assay: inhibitors of E-selectin induction by TNFa, primary screen, imaging, HUVEC, immunofluorescence, MLSMR starter and 10KST1 sets (AID 487);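 further: signal is fraction of cell area covered by stained E-selectin grains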
Details: HUVEC TNFalpha-induced E-selectin immunofluorescence imaging, at 2 µM; stronger effect = higher value
Reported values of inhibition for individual entries
Observable: inhibition (%)

> print(dat)
                                   compound  observed.result
1  COc1ccc(-n2ncc3c(N4CCC(C(N)=O)CC4)ncnc32)cc1             -114
2  CCOC(=O)c1[nH]c2ccc(OC)cc2c1NC(=O)CCN1CCCC(C)C1 (centres undefined)              9.9
3  O=c1[nH]c(CN(CCO)CCO)nc2c1C1(CCCCC1)Cc1ccccc1-2             -131
4   O=C(Nc1ccc2nc(-c3cccs3)[nH]c2c1)c1ccco1             -132

----------
Target: Voltage-gated potassium channel subunit beta-2 (Rattus norvegicus) (UniProt P62483)
Sequence (P62483 whole entry, looked up): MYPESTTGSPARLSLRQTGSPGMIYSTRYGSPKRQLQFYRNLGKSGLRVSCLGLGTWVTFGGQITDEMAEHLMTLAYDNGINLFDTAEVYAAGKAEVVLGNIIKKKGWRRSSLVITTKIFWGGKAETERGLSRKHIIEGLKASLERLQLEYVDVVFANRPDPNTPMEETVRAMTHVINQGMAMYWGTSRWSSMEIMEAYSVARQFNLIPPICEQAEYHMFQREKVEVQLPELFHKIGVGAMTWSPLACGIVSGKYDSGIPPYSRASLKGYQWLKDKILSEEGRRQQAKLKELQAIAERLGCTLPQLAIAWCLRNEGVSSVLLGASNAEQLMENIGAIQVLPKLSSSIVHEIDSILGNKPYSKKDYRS
Assay: KvBeta enzyme negative modulators, primary screen, biochemical, NADPH fluorescence (AID 622);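 further: slope of raw intensity against log time taken from 70 to 1610 s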
Conditions: recombinant KvBeta, 4-cyanobenzaldehyde reduction, at 10 µM, stronger effect = higher value
Observable: fluorescence slope

> print(dat)
                                   compound  observed.result
1  COc1ccc(/C(O)=C2/C(=O)C(=O)N(CCN3CCOCC3)C2c2cccnc2)cc1OC (stereo not given)           -0.486
2  CCOc1ccc(-c2nc(C#N)c(N3CCN(CC)CC3)o2)cc1           -0.498
3  Cc1nc2sc(C(c3cccc(F)c3)N3CCOCC3)c(O)n2n1 (stereo not given)           -0.502
4           Cc1ccc2cc(CNC(C)C)c(=O)[nH]c2c1            -0.49
5  Cn1c(=O)[nH]c(=O)c2c1nc(N1CCNCC1)n2CCOc1ccccc1           -0.513

----------
Reported values of z-score for individual entries
Assay: DUSP6 inhibitors restoring Erk phosphorylation by chemical complementation, primary imaging in DUSP6-transfected HeLa (AID 609)
Settings: HeLa MKP-3 transfected, phospho-Erk imaging KS statistic; measured here: nuclear pErk red intensity z-score; at 10 µM; stronger effect = higher value; cells stimulated with TPA for 15 min
Observable: z-score

> print(dat)
                                    molecule  observable  observed.result
 1        CC(C)OC(=O)CCNc1n[nH]c(=O)[nH]c1=O     z-score            0.621
 2          COC(=O)CCc1c(C)[nH]c(=S)[nH]c1=O     z-score            -1.03
 3  N#CCSc1nc2c(c(=O)n1Cc1ccco1)C1(CCCC1)Cc1ccccc1-2     z-score           -0.907
 4            CCc1nc(N2CCCC2)c(C#N)c2c1CCCC2     z-score            0.215
 5            Cn1c(N)c(C#N)c(C#N)c1-c1ccccc1     z-score            0.762
 6  Cc1ccc(S(=O)(=O)NC(=O)Nc2ncc3c(n2)CC(c2ccco2)CC3=O)cc1 (configuration not stated)     z-score           -0.985
 7              Cc1cc2c(C)nc(Cc3ccccc3)nc2o1     z-score            0.277
 8  COC(=O)CC1=C(C(=O)OC)C(c2cccc(OCC(N)=O)c2)C(C#N)=C(N)O1 (configuration not stated)     z-score             1.84
 9                  CSc1nc(C)c2c(c1C#N)CCCC2     z-score            -1.41
10  Cn1c(=O)c2c(nc(N3CCC(C(N)=O)CC3)n2CCSc2nc3ccccc3s2)n(C)c1=O     z-score           -0.422
11   CCOC(=O)c1c(-c2cccs2)csc1NC(=O)c1ccncc1     z-score           -0.644
12  COc1cccc(Cn2c(NCc3ccccn3)nc3c2c(=O)n(C)c(=O)n3C)c1     z-score          -0.0315
13     CN(CCNC(=O)c1ccc(/C=N/O)nc1)Cc1ccccc1     z-score          -0.0227
14           CCCc1nc(N2CCCC2)c(C#N)c2c1CCCC2     z-score           -0.444
15  O=C1NCC(COCC2CC=CCC2)O1 (configuration not stated)     z-score           -0.815
16         O=C(Nc1nnc(SCc2ccccc2F)s1)c1ccco1     z-score           -0.101
17           CCN(CC)Cc1cc(C(C)=O)ccc1OCC(C)C     z-score           -0.997

FYI, the data here is from PubChem BioAssay.
